target: T1, GPC3 protein (Acrobiosystems, cat #GP3-H52H4) (UniProt P51654 25-559); assay: ELISA, GPC3 protein coated at 100 ng/well, 100 µl hybridoma culture, anti-mIgG-HRP
T1 construct: Bought protein coated on the ELISA plate at 100 ng/well; also called Glypican 3; GPC3 antigen
T1 sequence (P51654 25-559 limits assumed): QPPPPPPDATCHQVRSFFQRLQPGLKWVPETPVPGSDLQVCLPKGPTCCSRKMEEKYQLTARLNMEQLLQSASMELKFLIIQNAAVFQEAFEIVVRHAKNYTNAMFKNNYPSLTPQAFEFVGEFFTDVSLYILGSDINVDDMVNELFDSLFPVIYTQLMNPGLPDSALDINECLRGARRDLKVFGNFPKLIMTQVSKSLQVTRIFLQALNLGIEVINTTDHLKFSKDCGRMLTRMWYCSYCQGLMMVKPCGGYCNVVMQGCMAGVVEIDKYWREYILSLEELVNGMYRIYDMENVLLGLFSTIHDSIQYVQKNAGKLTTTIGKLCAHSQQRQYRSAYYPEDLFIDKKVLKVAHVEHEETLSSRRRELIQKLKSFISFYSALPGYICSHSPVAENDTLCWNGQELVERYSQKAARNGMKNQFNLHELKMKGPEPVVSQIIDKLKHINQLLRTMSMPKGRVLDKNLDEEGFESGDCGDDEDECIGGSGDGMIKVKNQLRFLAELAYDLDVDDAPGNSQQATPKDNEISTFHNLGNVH
value-type: OD450 measurement (OD450)
State the answer as a number, implicitly in OD450.

binder	value-type	unit-symbol	endpoint-result
7C6 antibody (antibody, V domains shown, Mouse hybridoma monoclonal antibody, detected with anti-mouse IgG) VH: QVQLQQPGAELVKPGASVKLSCKASGYTFTTYYMYWVKQRPGQGLEWIGEINPSNGGTNFNEKFKSKATLTVDKSSSTAYMQLSSLTSEDSAVYYCTTFAYWGQGTLVTVSA VL: DIVMTQSPSSLSASLGGKVTITCKASQDINKYIVWYQHKPGKGPRLLIHYTSILQPGIPSRFSGSGSGRDYSFSISNLEPEDIATYYCLQYDNLWTFGGGTKLEIK	OD450 measurement	OD450	2.88
5E11 antibody (antibody, V domains shown, Mouse hybridoma monoclonal antibody, detected with anti-mouse IgG) VH: QVQLKQSGAELMKPGASVKISCKATGYTFSRYWIEWVKQRPGHGLEWIGEILPGSGSTSYNEKFKGKATFTADTSSNTAYMQLSSLTSEDSAVYYCARSARATYYFDYWGQGTTLTVSS VL: DIQMTQTTSSLSASLGDRVTISCWASQDISNYLNWYQQKPDGTVKLLIYYTSTLHSGVPSRFSGSGSGTDYSLTISNLEQEDIATYFCQQGNALPYTFGGGTKLEIK	OD450 measurement	OD450	0.942
8B2 antibody (antibody, V domains shown, Mouse hybridoma monoclonal antibody, detected with anti-mouse IgG) VH: QVQLQQPGAELVKPGASVKMSCKASGYTFTSYNMHWVKQTPGQGLEWIGAIYPGNGYTSYNQKFKGKATLTADKSSSTAYMQLSSLTSEDSAVYYCARGGGPFAYWGQGTLVTVSA VL: DIVMTQSHKFMSTSVGDRVSITCKASQDVGTAVAWYQQKPGQSPKLLIYWPSTRHTGVPDRFTGSGSGTDFTLTISNVQSEDLADYFCQQYSSYPFTFGSGTKLEIK	OD450 measurement	OD450	1.01

Let us move to another entry and its OD450 measurement.
Which OD450 measurement is listed for 10E9 antibody (antibody, V domains shown, Mouse hybridoma monoclonal antibody, detected with anti-mouse IgG; Used as hybridoma culture supernatant in the ELISA) VH: EVQLEESGTVLARPGASVKMSCKASGYTFTSYWMHWIKQRPGQGLEWIGAIYPGNSDTSYNQKFKGKAKLTAVTSTSTAYMELSSLTNEDSAVYYCTRGEYDYVLAYWGQGTLVTVSA VL: DIVMTQSPATLSVTPGDSVSLSCRASQSISNNLHWYQQKSHESPRLLIKFASQSISGIPSRFSGSGSGTDFTLSINSVETEDFGMYFCQQSNSWPHMYTFGGGTKLEIK ? 2.32
